System: DU145 (prostate cancer)
Assay: Effect of compounds on tumor cell lines (assay of Latham et al.), DU145
Assay type: cell-based
Details: DU145 cells, 96 hours after treatment, 1 μM to 100 μM; read-out: DU 145 potency (IC50)
Method: The effect of the compounds of the invention on tumor cells was determined by the assay described by Latham et al., Oncogene 12:827-837 (1996). Tumor cells K562 (chronic myelogenous leukaemia) or DU145 (prostate cancer) were plated in 12-well dishes at a cell density of 2.5×10^4 cells well. […] When necessary, the total number of viable cells was determined by trypsinizing the wells and counting the number of viable cells, as determined by trypan blue exclusion, using a hemacytometer. […]
pIC50: −log10 of the molar value.
REPORTED_PROPERTY: pIC50

See these solved cases before continuing.
molecule_smiles=O=C(C(=Cc1ccc(O)c(C(=O)O)c1)SCc1ccc(Br)cc1)c1ccc(Br)cc1 measured_result="4.60 to 5.00"
molecule_smiles=O=C(C(=Cc1ccc(OCc2ccccc2)cc1)SCc1ccc(Cl)cc1)c1ccc(Cl)cc1 measured_result="5.00 to 6.00"

Data point: CN1CCN(CCNC(=O)c2ccc(C(=O)/C(=C\c3ccc(F)c([N+](=O)[O-])c3)SCc3ccc(F)cc3)cc2)CC1 ; pIC50 = 4.60 to 5.00

For reference, reported pIC50 for COc1ccc(CS/C(=C/c2ccc(F)cc2)C(=O)c2ccc(Cl)cc2)cc1 stands at 4.60 to 5.00

Per the records, this compound ( O=C(O)c1ccc(C(=O)C(=Cc2ccc(F)c([N+](=O)[O-])c2)SCc2ccccc2Cl)cc1 ) has pIC50 equal to 5.00 to 6.00

GET /value?item= CN(C)c1ccc(/C=C(/SCc2ccc(Br)cc2)C(=O)c2ccc(C(=O)O)cc2)cc1 &field=pIC50 returns 4.00 to 4.30

Entry under test: N#Cc1ccc(C(=O)C(=Cc2ccc([N+](=O)[O-])c(O)c2)SCc2ccc(Br)cc2)cc1 . Its pIC50 was 5.00 to 6.00

compound O=C(C(=Cc1ccc(Br)cc1)SCc1ccccc1Cl)c1ccc(Cl)cc1 , pIC50 observed: 4.60 to 5.00

---

Test system: DU145 (prostate cancer)
Test: Effect of compounds on tumor cell lines (assay of Latham et al.), DU145
Assay type: cell-based
Details: DU145 cells, 96 hours after treatment, 1 μM to 100 μM; read-out: DU 145 potency (IC50)
Method: The effect of the compounds of the invention on tumor cells was determined by the assay described by Latham et al., Oncogene 12:827-837 (1996). Tumor cells K562 (chronic myelogenous leukaemia) or DU145 (prostate cancer) were plated in 12-well dishes at a cell density of 2.5×10^4 cells well. […] When necessary, the total number of viable cells was determined by trypsinizing the wells and counting the number of viable cells, as determined by trypan blue exclusion, using a hemacytometer. […]
pIC50: −log10 of the molar value.
REPORTED_PROPERTY: pIC50

molecule_smiles=O=C(/C(=C\c1ccc(O)c([N+](=O)[O-])c1)SCc1ccc(Br)cc1)c1c(F)c(F)c(F)c(F)c1F measured_result="4.60 to 5.00"
molecule_smiles=Cc1cc(C)cc(C=C(SCc2ccc(Cl)cc2)C(=O)c2ccc(Cl)cc2)c1 measured_result="4.60 to 5.00"
molecule_smiles=COc1cc(OC)c(C=C(SCc2ccc(Cl)cc2)C(=O)c2ccc(Br)cc2)c(OC)c1 measured_result="5.00 to 6.00"

// next item, pIC50 requested
Item: O=C(C(=Cc1ccc(F)c([N+](=O)[O-])c1)SCc1ccc(Br)cc1)c1ccc(Cl)c([N+](=O)[O-])c1 | pIC50: < 4.00

---

tested on: DU145 (prostate cancer); test: Effect of compounds on tumor cell lines (assay of Latham et al.), DU145; type: cell-based; settings: DU145 cells, 96 hours after treatment, 1 μM to 100 μM; read-out: DU 145 potency (IC50)
Measured IC50 by item

Take a look at these entries with their results.
molecule_smiles=CN1CCN(c2ccc(C=C(SCc3ccc(Br)cc3)C(=O)c3ccc(C(=O)O)cc3)cc2[N+](=O)[O-])CC1 reported_property=IC50 measured_result="10 to 25 µM"
molecule_smiles=Nc1ccc(/C=C(/SCc2ccc(F)cc2)C(=O)c2ccc(C(=O)O)cc2)cc1[N+](=O)[O-] reported_property=IC50 measured_result="10 to 25 µM"
molecule_smiles=COc1ccccc1C=C(SCc1ccc(Cl)cc1)C(=O)c1ccc([N+](=O)[O-])cc1 reported_property=IC50 measured_result="10 to 25 µM"
molecule_smiles=O=C(C(=Cc1ccc(F)c([N+](=O)[O-])c1)SCc1ccc(Br)cc1)c1ccc(F)cc1 reported_property=IC50 measured_result="≤ 1 µM"
molecule_smiles=Cc1ccc(CSC(=Cc2c[nH]c3ccc(Br)cc23)C(=O)c2ccc(Cl)cc2)cc1 reported_property=IC50 measured_result="1 to 10 µM"

Form: compound = O=C(C(=Cc1ccc(C(F)(F)F)cc1)SCc1ccc(Cl)cc1)c1ccc(Cl)cc1 ; IC50 = 1 to 10 µM

The compound listed as O=C(C(=Cc1ccc([N+](=O)[O-])cc1)SCc1ccc(Br)cc1)c1ccc(Br)cc1 shows IC50 equal to 1 to 10 µM

Summary for this compound, O=C(/C(=C\c1cccc(Cl)c1Cl)SCc1ccc(Cl)cc1)c1ccc(Br)cc1 : IC50 is 10 to 25 µM

Just so you know, measured IC50 for O=C(/C(=C\c1ccc(O)c([N+](=O)[O-])c1)SCc1ccc(Br)cc1)c1ccc(Cl)cc1Cl came out at 10 to 25 µM

get_value(item= CCOc1ccc(C=C(SCc2ccccc2Cl)C(=O)c2ccc(Cl)cc2)cc1OC , readout=IC50) returns 50 to 100 µM

For reference, reported IC50 for O=C(C(=Cc1ccc([N+](=O)[O-])c(O)c1)SCc1ccc(Br)cc1)c1ccc([N+](=O)[O-])c(Cl)c1 stands at 1 to 10 µM

For reference, reported IC50 for Cc1ccc(CSC(=Cc2ccccc2OCc2ccccc2)C(=O)c2ccc(Cl)cc2)cc1 stands at 1 to 10 µM

IC50 reading for COc1ccc(C=C(SCc2ccccc2Cl)C(=O)c2ccc(Cl)cc2)c(OC)c1OC : 10 to 25 µM

---

system: DU145 (prostate cancer); test: Effect of compounds on tumor cell lines (assay of Latham et al.), DU145; assay type: cell-based; details: DU145 cells, 96 hours after treatment, 1 μM to 100 μM; read-out: DU 145 potency (IC50)
pIC50: −log10 of the molar value.
REPORTED_PROPERTY: pIC50

Observe how each entry below is paired with its result.
compound="Cc1ccc(S(=O)(=O)Oc2ccc(C(=O)/C(=C\\c3ccc(F)c([N+](=O)[O-])c3)SCc3ccc(F)cc3)cc2)cc1 [Example 336]" reported_property=pIC50 measured_result="5.00 to 6.00"
compound="O=C(C(=Cc1c[nH]c2ccc(Cl)cc12)SCc1ccc(F)cc1)c1ccc(Br)cc1 [Example 267]" reported_property=pIC50 measured_result="5.00 to 6.00"

Observed pIC50, DU145 (prostate cancer), CN(C)c1ccc(C=C(SCc2ccc(Cl)cc2)C(=O)c2ccc(C(=O)O)cc2)cc1 [Example 209] : 5.00 to 6.00

pIC50 of Cc1ccc(CSC(=Cc2ccc(N(C)C)cc2)C(=O)c2ccc(Cl)cc2)cc1 [Example 285] , assay on DU145 (prostate cancer), is 4.60 to 5.00

---

Recorded IC50 for the following compounds
tested on: DU145 (prostate cancer); test: Effect of compounds on tumor cell lines (assay of Latham et al.), DU145; assay type: cell-based; details: DU145 cells, 96 hours after treatment, 1 μM to 100 μM; read-out: DU 145 potency (IC50)

For orientation, consider the following solved cases.
compound=COc1cc(OC)c(C=C(SCc2ccc(Cl)cc2Cl)C(=O)c2ccc(Cl)cc2)c(OC)c1 measured_result="1 to 10 µM"
compound=O=C(C(=Cc1ccc(Br)cc1)SCc1ccc(Cl)cc1)c1ccc(Br)cc1 measured_result="1 to 10 µM"
compound=O=C(NCCN1CCOCC1)c1ccc(C(=O)C(=Cc2ccc(F)c([N+](=O)[O-])c2)SCc2ccc(Br)cc2)cc1 measured_result="1 to 10 µM"
compound=Cc1ccc(CSC(=Cc2ccc(C)s2)C(=O)c2ccc(Cl)cc2)cc1 measured_result="50 to 100 µM"
compound=COc1ccccc1C=C(SCc1ccc(Cl)cc1)C(=O)c1ccc(Br)cc1 measured_result="1 to 10 µM"

Known value: DU145 (prostate cancer) IC50 of the compound CN(C)c1ccc(C=C(SCc2ccc(Cl)c(Cl)c2)C(=O)c2ccc(Cl)cc2)cc1 equals 50 to 100 µM

Param item: O=C(C(=Cc1ccc(O)cc1O)SCc1cccc(Cl)c1)c1ccc(Br)cc1 ; param system: DU145 (prostate cancer); output IC50: 50 to 100 µM

Kindly note: DU145 (prostate cancer), COc1ccc(C=C(SCc2ccc(F)cc2)C(=O)c2ccc(C(=O)O)cc2)cc1O , IC50 value reported: 10 to 25 µM

The reported IC50 value, DU145 (prostate cancer), for Cc1ccc(CSC(=Cc2ccccc2F)C(=O)c2ccc(Br)cc2)cc1 reads 10 to 25 µM

Given the compound Cc1ccc(CSC(=Cc2ccc[nH]2)C(=O)c2ccc(Cl)cc2)cc1 and test system DU145 (prostate cancer), the measured IC50 is 25 to 50 µM

Noted IC50 for O=C(O)c1ccc(C(=O)/C(=C\c2ccc(O)c([N+](=O)[O-])c2)SCc2ccc(Br)cc2)cc1 , tested on DU145 (prostate cancer): 50 to 100 µM

IC50 for DU145 (prostate cancer) with input O=C(C(=Cc1ccc([N+](=O)[O-])c(O)c1)SCc1ccc(Br)cc1)c1ccc(Br)cc1 equals 10 to 25 µM

Tested system DU145 (prostate cancer); IC50 recorded for Cc1ccc(CSC(=Cc2ccc(O)c(O)c2O)C(=O)c2ccc(Cl)cc2)cc1 was 50 to 100 µM

Param item: CSc1ccc(C=C(SCc2ccc(C)cc2)C(=O)c2ccc(Cl)cc2)cc1 ; param system: DU145 (prostate cancer); output IC50: 25 to 50 µM

The measured IC50 that O=C(C(=Cc1ccc(Cl)cc1)SCc1ccc(Cl)cc1)c1ccc(Br)cc1 showed for DU145 (prostate cancer) is 10 to 25 µM

Measured IC50 (DU145 (prostate cancer)), entry O=C(C(=Cc1ccccc1OCc1ccccc1)SCc1ccc(Cl)c(Cl)c1)c1ccc(Cl)cc1 : 10 to 25 µM

// assay DU145 (prostate cancer), entry O=C(C(=Cc1ccc(OCc2ccccc2)cc1)SCc1cccc(Cl)c1)c1ccc(Br)cc1 , IC50 value = 1 to 10 µM

Result for COc1ccc(C=C(SCc2ccc(Cl)cc2)C(=O)c2ccc(Br)cc2)cc1 [Example 225] , tested on DU145 (prostate cancer), IC50: 10 to 25 µM

Case CSc1ccc(C=C(SCc2ccc(C)cc2)C(=O)c2ccc(Br)cc2)cc1 , DU145 (prostate cancer), IC50 recorded as > 100 µM

O=C(O)c1ccc(C(=O)C(=Cc2ccc(F)c([N+](=O)[O-])c2)SCc2ccc(Cl)cc2Cl)cc1 tested on DU145 (prostate cancer) gave IC50: 1 to 10 µM

Let me check: Cc1ccc(CS/C(=C/c2ccc(F)c([N+](=O)[O-])c2)C(=O)c2ccc(C(=O)O)cc2)cc1 [Example 348] , system DU145 (prostate cancer), measured IC50 is 10 to 25 µM

Item: O=C(C(=Cc1ccc(O)c([N+](=O)[O-])c1)SCc1ccccc1Cl)c1ccc(Cl)cc1 | System: DU145 (prostate cancer) | IC50: 10 to 25 µM

Simply: O=C(C(=Cc1ccc(Cl)cc1Cl)SCc1ccc(Cl)cc1)c1ccc(Cl)cc1 , DU145 (prostate cancer), IC50 = 25 to 50 µM

IC50 value, target or system DU145 (prostate cancer), for Cc1ccc(CSC(=Cc2ccc(F)cc2C(F)(F)F)C(=O)c2ccc(Cl)cc2)cc1 : 50 to 100 µM

IC50 value, target or system DU145 (prostate cancer), for Cc1cc(C)cc(C=C(SCc2ccc(F)cc2)C(=O)c2ccc(Br)cc2)c1 : 10 to 25 µM

# lookup: O=C(C(=Cc1cc(Cl)c(O)c(Cl)c1)SCc1ccc(Br)cc1)c1ccc(Br)cc1 on DU145 (prostate cancer), IC50 = 10 to 25 µM

// compound Cc1ccsc1C=C(SCc1ccc(Cl)cc1)C(=O)c1ccc(Br)cc1 , assay DU145 (prostate cancer), IC50 value: 25 to 50 µM

The reported DU145 (prostate cancer) IC50 of CN1CCN(CCCNC(=O)c2ccc(C(=O)C(=Cc3ccc(F)c([N+](=O)[O-])c3)SCc3ccc(Br)cc3)cc2)CC1 is 1 to 10 µM

Sample O=C(/C(=C\c1ccc(O)c([N+](=O)[O-])c1)SCc1ccc(Br)cc1)c1ccc(C(F)(F)F)cc1 , system: DU145 (prostate cancer). Its IC50 is 10 to 25 µM

Entry O=C(C(=Cc1c(O)cc(O)cc1O)SCc1ccc(Cl)c(Cl)c1)c1ccc(Cl)cc1 : IC50 on DU145 (prostate cancer) = 25 to 50 µM

The observed IC50 for O=C(C(=Cc1ccc(F)c([N+](=O)[O-])c1)SCc1ccc(Br)cc1)c1ccc(C(=O)N2CCN(c3ccc(C(F)(F)F)cn3)CC2)cc1 when tested with DU145 (prostate cancer) stands at 1 to 10 µM

Bench note, DU145 (prostate cancer): entry Cc1ccc(CSC(=Cc2ccc(F)c(C)c2)C(=O)c2ccc(Cl)cc2)cc1 , its IC50 = 25 to 50 µM

Value source: patent US8808702B2
